# Tested on: human alveolar basal epithelial adenocarcinoma cells, A549
# assay method text: Multipolarity-inducing activity assay 3 (A549 cells synchronized in G2 phase (or M phase))
# Type: cell-based
# study conditions: 10 μM peptide, number of M-phase cells 100
# Method: Some of the sample peptides obtained in Example 1 were tested for multipolarity-inducing activity against target cultured tumor cells. As the tumor cells tested, cells forming a […] (human alveolar basal epithelial adenocarcinoma cells, A549) were used. […] Similarly to Examples 2 and 3 described above (the number of M-phase cells was 100 herein), the presence of multipolarity was observed by immunofluorescence under fluorescence microscope.
metric name: Multipolar level (%)

| entry sequence | tested on | metric name | readout unit | experimental result |
| --- | --- | --- | --- | --- |
| GAVTYSRISGQY [Sample 10] | human alveolar basal epithelial adenocarcinoma cells, A549 | Multipolar level (%) | % | 29 |
| SLLPHSNHAKHY [Sample 7] | human alveolar basal epithelial adenocarcinoma cells, A549 | Multipolar level (%) | % | 28 |
| SVSVGMKPSPRPKKRTLRKNDRKKR [Sample 11] | human alveolar basal epithelial adenocarcinoma cells, A549 | Multipolar level (%) | % | 32 |
| GPHLGMNQRRRP [Sample 9] | human alveolar basal epithelial adenocarcinoma cells, A549 | Multipolar level (%) | % | 27 |
| NMTTYPMHNNTVKKRTLRKNDRKKR [Sample 16] | human alveolar basal epithelial adenocarcinoma cells, A549 | Multipolar level (%) | % | 33 |
| TPSLPPTMFRLT [Sample 3] | human alveolar basal epithelial adenocarcinoma cells, A549 | Multipolar level (%) | % | 32 |
| SVSVGMKPSPRP [Sample 1] | human alveolar basal epithelial adenocarcinoma cells, A549 | Multipolar level (%) | % | 30 |
| NMTTYPMHNNTV [Sample 6] | human alveolar basal epithelial adenocarcinoma cells, A549 | Multipolar level (%) | % | 32 |
| EFEYFHPATFRL [Sample 8] | human alveolar basal epithelial adenocarcinoma cells, A549 | Multipolar level (%) | % | 26 |
| QSPVNHHYHYHI [Sample 5] | human alveolar basal epithelial adenocarcinoma cells, A549 | Multipolar level (%) | % | 34 |
| GPHHYWYHLRLP [Sample 4] | human alveolar basal epithelial adenocarcinoma cells, A549 | Multipolar level (%) | % | 28 |

====

# System: HeLa cell line (HeLa S3)
# assay method text: Multipolarity-inducing activity assay 2 (cells synchronized in G2 phase (or M phase) by nocodazole)
# Format: cell-based
# study conditions: 10 μM peptide, 4 hours with peptide + 2 hours without, count among 60 M-phase cells
Entries and their Number of multipolar cells values follow.

| entry sequence | Number of multipolar cells |
| --- | --- |
| SVSVGMKPSPRPKKRTLRKNDRKKR [Sample 11] | 25 |
| GPHHYWYHLRLP [Sample 4] | 29 |
| SVSVGMKPSPRP [Sample 1] | 24 |
| GPHLGMNQRRRP [Sample 9] | 33 |
| QSPVNHHYHYHI [Sample 5] | 25 |
| SLLPHSNHAKHY [Sample 7] | 26 |
